This collection of values is drawn from ChEMBL document CHEMBL1821637.

Test system: SH-SY5Y
Assay: Cytotoxicity against human SH-SY5Y cells assessed as cell viability after 48 hrs by alamar blue assay
Format: functional, cell-based
Recorded IC50, one value per entry.

- molecule: "CC(C)CCC[C@@H](C)[C@H]1CC[C@H]2[C@@H]3C[C@@H](O)[C@@]4(O)C[C@@H](O)CC[C@]4(C)[C@H]3CC[C@]12C [CHOLESTAN-3beta,5alpha,6beta-TRIOL]"
  IC50 / µM: 17.2
- molecule: "CC(C)CCC[C@@H](C)[C@H]1CC[C@H]2[C@@H]3[C@@H](O)[C@@H](O)[C@@]4(O)C[C@@H](O)CC[C@]4(C)[C@H]3CC[C@]12C"
  IC50 / µM: 20.2
- molecule: "COc1cccc2c1C(=O)c1c(O)c3c(c(O)c1C2=O)C[C@@](O)(C(=O)CO)C[C@@H]3O[C@H]1C[C@H](N)[C@H](O)[C@H](C)O1 [DOXORUBICIN]"
  IC50 / µM: 0.5
- molecule: "CC(=O)O[C@@H]1C[C@H]2[C@@H]3CC[C@H]([C@H](C)CCCC(C)C)[C@@]3(C)CC[C@@H]2[C@@]2(C)CC[C@H](O)C[C@]12O"
  IC50 / µM: 12.2
- molecule: "CC(C)CCC[C@@H](C)[C@H]1CC[C@H]2[C@@H]3[C@@H](O)C=C4C[C@@H](O)CC[C@]4(C)[C@H]3CC[C@]12C"
  IC50 / µM: 16.4
- molecule: "CC(C)CCC[C@@H](C)[C@H]1CC[C@H]2[C@@H]3C[C@@H](O)[C@@]4(O)[C@@H](O)[C@@H](O)CC[C@]4(C)[C@H]3CC[C@]12C"
  IC50 / µM: 14.5
- molecule: "CC(=O)O[C@@H]1[C@H]2[C@@H]3CC[C@H]([C@H](C)CCCC(C)C)[C@@]3(C)CC[C@@H]2[C@@]2(C)CC[C@H](O)C[C@]2(O)[C@@H]1OC(C)=O"
  IC50 / µM: 13.8
- molecule: "CC(C)CCC[C@@H](C)[C@H]1CC[C@H]2[C@@H]3C/C(=N\\O)[C@@]4(O)C[C@@H](O)CC[C@]4(C)[C@H]3CC[C@]12C"
  IC50 / µM: 16.8

====

Assay: Cytotoxicity against human ARPE19 cells assessed as inhibition of cell growth after 96 hrs by alamar blue assay
Format: cell-based
Conditions: ARPE-19, 96 h

- structure smiles string: "CC(=O)O[C@H]1CC[C@@]2(C)C(=C[C@H](O)[C@H]3[C@@H]4CC[C@H]([C@H](C)CCCC(C)C)[C@@]4(C)CC[C@@H]32)C1"
  unit text: "µM"
  IC50: 23.6
- structure smiles string: "CC(=O)O[C@H]1CC[C@]2(C)[C@H]3CC[C@]4(C)[C@@H]([C@H](C)CCCC(C)C)CC[C@H]4[C@@H]3C[C@@H](OC(C)=O)[C@@]2(O)C1"
  unit text: "µM"
  IC50: 35.4
- structure smiles string: "CC(=O)O[C@H]1[C@@H](O)CC[C@]2(C)[C@H]3CC[C@]4(C)[C@@H]([C@H](C)CCCC(C)C)CC[C@H]4[C@@H]3CC[C@@]12O"
  unit text: "µM"
  IC50: 22.3
- structure smiles string: "CC(=O)O[C@H]1CC[C@]2(C)[C@H]3CC[C@]4(C)[C@@H]([C@H](C)CCCC(C)C)CC[C@H]4[C@@H]3[C@@H](O)[C@@H](O)[C@@]2(O)C1"
  unit text: "µM"
  IC50: 23.8
- structure smiles string: "CC(=O)O[C@H]1CC[C@]2(C)[C@H]3CC[C@]4(C)[C@@H]([C@H](C)CCCC(C)C)CC[C@H]4[C@@H]3C[C@@H](O)[C@@]2(O)C1"
  unit text: "µM"
  IC50: 53
- structure smiles string: "CC(=O)O[C@H]1CC[C@]2(C)[C@H]3CC[C@]4(C)[C@@H]([C@H](C)CCCC(C)C)CC[C@H]4[C@@H]3[C@@H](OC(C)=O)[C@@H](O)[C@@]2(O)C1"
  unit text: "µM"
  IC50: 19.5
- structure smiles string: "CC(=O)O[C@H]1CC[C@]2(C)[C@H]3CC[C@]4(C)[C@@H]([C@H](C)CCCC(C)C)CC[C@H]4[C@@H]3CC[C@@]2(O)[C@H]1O"
  unit text: "µM"
  IC50: 21.8
